B1: Ankyrin repeat and SAM domain-containing protein 6, residues 774 to 836; numbered along this chain, Q68DC2 (parent)
chain: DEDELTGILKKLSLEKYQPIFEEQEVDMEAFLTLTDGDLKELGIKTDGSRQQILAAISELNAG

- Variants of: B1
- test details: abundance fitness (aPCA) (normalised: wild type 0, dead -1); higher = more abundant; growth selection in yeast, the domain comes from the species named
- applied conditions: Homo sapiens
Returns Yes if the recorded abundance fitness is greater than or equal to -0.3, and No otherwise.

In: Form field: abundance fitness at least -0.3? Entry: DEDELTGILKKLSLEKYQPIFEEQEVDMEAFLTLTDGDLKELGIKTDGSRQQHLAAISELNAG [I53H]
Out: No

In: # check: abundance fitness of DEDELTGILTKLSLEKYQPIFEEQEVDMEAFLTLTDGDLKELGIKTDGSRQQILAAISELNAG [K10T] is greater than or equal to -0.3
Out: Yes

In: Quick check: does DEDELTGILKKLSLEKYQPIFEEQEVDMEAFLTLTDGDLKELGIKTDGSAQQILAAISELNAG [R50A] have abundance fitness greater than or equal to -0.3?
Out: No

src = the Human Domainome abundance scans (Beltran et al. 2025)
